% inhibition apPOL 180' for assorted compounds
# target: P. falciparum apicoplast DNA polymerase (Pf-apPOL) (Plasmodium falciparum, UniProt Q8ILY1)
# Sequence (Q8ILY1 entry or part of it): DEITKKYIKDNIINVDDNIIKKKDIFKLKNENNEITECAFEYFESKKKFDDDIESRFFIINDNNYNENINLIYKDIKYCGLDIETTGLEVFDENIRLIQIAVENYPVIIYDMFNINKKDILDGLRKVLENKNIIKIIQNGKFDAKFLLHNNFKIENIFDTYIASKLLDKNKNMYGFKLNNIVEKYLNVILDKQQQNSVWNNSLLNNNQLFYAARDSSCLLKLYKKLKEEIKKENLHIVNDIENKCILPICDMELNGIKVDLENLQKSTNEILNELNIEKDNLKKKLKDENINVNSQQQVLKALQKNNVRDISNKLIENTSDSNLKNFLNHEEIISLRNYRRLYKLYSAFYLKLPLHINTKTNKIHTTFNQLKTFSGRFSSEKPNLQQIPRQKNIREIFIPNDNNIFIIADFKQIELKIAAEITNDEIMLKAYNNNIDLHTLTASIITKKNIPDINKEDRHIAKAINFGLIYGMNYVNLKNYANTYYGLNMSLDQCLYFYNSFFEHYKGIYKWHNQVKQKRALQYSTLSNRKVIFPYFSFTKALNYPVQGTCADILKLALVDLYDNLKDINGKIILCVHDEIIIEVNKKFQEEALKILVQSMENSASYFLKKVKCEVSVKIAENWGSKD
# test: Fluorescence-based high-throughput DNA polymerase assay (molecular beacon), primary screen and dose-response;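 further: test concentration in µM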
# Type: biochemical
# condition parameters: DRC-1; 180'; conc 10
observed property: % inhibition apPOL 180' (%)

compound	observed property	display unit	data value
CCOc1nc2cccc(C(=O)OC(C)OC(=O)OC3CCCCC3)c2n1Cc1ccc(-c2ccccc2-c2nnn[nH]2)cc1 (stereo not drawn) [Molecule 94]	% inhibition apPOL 180'	%	64.6519
Cc1cccc(NC(=O)Cn2ccc3c(=O)[nH]ccc32)c1C [Molecule 11, O=C(Cn1ccc2c1cc[nH]c2=O)Nc1cccc(c1C)C]	% inhibition apPOL 180'	%	34.4928
COC(=O)c1sc(-c2ccc(C(C)(C)C)cc2)cc1NC(=O)CCC(=O)O [Molecule 87]	% inhibition apPOL 180'	%	36.7594
Cc1ccc(N2NC(=O)/C(=C\c3ccc(O)c([N+](=O)[O-])c3)C2=O)cc1Cl [KU0058427]	% inhibition apPOL 180'	%	25.4818
C=CC1=C(C)c2cc3[nH]c(cc4nc(cc5[nH]c(cc1n2)c(C)c5CCC(=O)O)C(CCC(=O)O)=C4C)c(C)c3C=C [Molecule 91]	% inhibition apPOL 180'	%	94.4178
COc1ccccc1C1CC(=O)Oc2cc3c(cc21)OCO3 (stereo not drawn) [KU0104502]	% inhibition apPOL 180'	%	18.8078
